Reported Drug uptake values are given for each entry in this list.
Assay: Biodistribution in uvea of C57BL/6 mouse bearing mouse B16-F0 cells at 0.74 to 0.92 MBq, iv after 6 hrs
Assay type: ADME, organism-based, Uveal tract
Details: in vivo
Provide only the numeric value, understood in % ID/g.

SMILES_DATA	Drug uptake [% ID/g]
CCN(CC)CCNC(=O)c1cc2c([125I])cccc2cn1.Cl.Cl	18.02
CCN(CC)CCNC(=O)c1cc2cc([125I])ccc2[nH]1.Cl	13.2
CCN(CC)CCNC(=O)c1ccc([125I])nc1.Cl.Cl	11.5

The molecule listed as `CCN(CC)CCNC(=O)c1ccc2cncc([125I])c2n1.Cl.Cl` has a reported Drug uptake of 13.15

###

Tested on: Muscle tissue
Experiment: Biodistribution in muscle of C57BL/6 mouse bearing mouse B16-F0 cells at 0.74 to 0.92 MBq, iv after 1 hr
Format: ADME, organism-based
Settings: in vivo
QUANTITY_MEASURED: Drug uptake (% ID/g)
Provide only the numeric value, understood in % ID/g.

Known Drug uptake results, listed for orientation:
SMILES_DATA	TARGET_ENTITY	Drug uptake (% ID/g)
CCN(CC)CCNC(=O)c1nc2cc([125I])ccc2[nH]1.Cl.Cl	Muscle tissue	0.55
CCN(CC)CCNC(=O)c1ccc2cc([125I])ccc2c1.Cl	Muscle tissue	1.92

Param item: `CCN(CC)CCNC(=O)c1c[nH]c2ccc([125I])cc2c1=O.Cl.Cl` ; param system: Muscle tissue; output Drug uptake: 0.92

Param item: `CCN(CC)CCNC(=O)c1cnc2cc([125I])ccc2n1.Cl.Cl` ; param system: Muscle tissue; output Drug uptake: 2.04

Param item: `CCN(CC)CCNC(=O)c1cc2cc([125I])ccc2[nH]1.Cl` ; param system: Muscle tissue; output Drug uptake: 1.5

Param item: `CCN(CC)CCNC(=O)c1cc2c([125I])cccc2cn1.Cl.Cl` ; param system: Muscle tissue; output Drug uptake: 0.74

###

Experiment: Ratio of drug level in tumor to liver of C57BL/6 mouse bearing mouse B16-F0 cells at 0.74 to 0.92 MBq, iv after 1 hr
Assay type: ADME, organism-based
Conditions: in vivo
Reported Ratio values are given for each entry in this list.
# respond with the number and nothing more

Known Ratio results, listed for orientation:
SMILES_DATA	Ratio
CCN(CC)CCNC(=O)c1cnc2cc([125I])ccc2n1.Cl.Cl	1.29
CCN(CC)CCNC(=O)c1ccc2cc([125I])ccc2n1.Cl.Cl	1.8
CCN(CC)CCNC(=O)c1cn2cc([125I])ccc2n1.Cl.Cl	1.43
CCN(CC)CCNC(=O)c1cc2cc([125I])ccc2o1.Cl	1.36

The record that follows has no Ratio shown yet.
The molecule listed as `CCN(CC)CCNC(=O)c1nc2cc([125I])ccc2[nH]1.Cl.Cl` has a reported Ratio of 1.13

###

Assay: Biodistribution in Stomach content of C57BL/6 mouse bearing mouse B16-F0 cells at 0.74 to 0.92 MBq, iv after 1 hr
Format: ADME, organism-based
Settings: in vivo
QUANTITY_MEASURED: Drug uptake (% ID/g)
Provide only the numeric value, understood in % ID/g.

SMILES_DATA	QUANTITY_MEASURED	UNIT_NAME	EXPERIMENTAL_RESULT
CCN(CC)CCNC(=O)c1nc2cc([125I])ccc2[nH]1.Cl.Cl	Drug uptake	% ID/g	24.46
CCN(CC)CCNC(=O)c1cc2c([125I])cccc2cn1.Cl.Cl	Drug uptake	% ID/g	23.01

The record that follows has no Drug uptake shown yet.
The molecule listed as `CCN(CC)CCNC(=O)c1cc2c([125I])cccc2s1.Cl` has a reported Drug uptake of 20
